Protocol Details: yeast display, Sf9 membrane polyspecificity reagent, FACS + sequencing; frameworks hold sequencing errors
Measurement Type: polyreactivity (PSR sort gate)

Worked cases, answers included:
>  <Residues>
QVQLVESGGGLVQAGGSLRLSCAASGITFFRNAMGWYRQAPGKERELVAGISTTGGRTYYADSVKGRFTISRDKAKNTVYLQMNSLKPEDTAVYYCNTLVPRAGREYDYWGQGTQVTVSS

>  <Result>
high polyreactivity

$$$$
>  <Residues>
QVQLVESGGGLGQAGGSLRLTCAASGSTFDYYAMGWYRPAPRKERELVAAISSSGSSTYYADSVKGRFTISRDIAKNTVYLQMNSLNPEDTAVYFCAIGTNYRDDYWGQGTQVTVSS

>  <Result>
low polyreactivity

$$$$
>  <Residues>
QVQLVESGAGLVQAGGSLRLSCAASGSTFGKYAMGWYTQAPGKEMELVARIDSGDGTYYADSVKGRFTISRDNAKNTVYLQMNSLKPEDTAVYYCAARYGARRLTYFWPQYARYDYWGQGTKVTVSS

>  <Result>
high polyreactivity

$$$$
>  <Residues>
QVQLVESGGGLVQAGGSLRLSCAASGSTVINYAMGWYRHAPGKERELVATLTSDGRTYYADSVKGRCTISRDNAKNTVYLQMISLKPEDTAVYSCAKSYGGVTEYDYWGQGTQVTVSS

>  <Result>
low polyreactivity

$$$$
>  <Residues>
QVQLVESGGGLVQAGGSLRLSCAASGSTFTTYAMGWYRQAPGKEREFVASIRWRGGHTYYADSVKGRFTISRDNAKNTVYLQMNSLKPEDTAVYFCARRVDYISSKYGYWGQGTQVTVSS

>  <Result>
high polyreactivity

$$$$
>  <Residues>
QVQLVESGGGLVQEGGSLRLSCAASGRTFTTYAMGWYRQAPGKERELVAAISDTGGITYYADSVKGRFTISRDTAKNTVYIQMNSLKPEDTAVYYCNAESYGGDYDYWGQGTQVTVSS

>  <Result>
low polyreactivity

$$$$
>  <Residues>
QVQLVESGGGLVQAGGSLRLSCAASGFTFKYYAMGWYRQAPGKERELVATITRSGGNTYYADSVKGRFTISRDNAKNTVYLQMNSLKPEDTAVYYCNKGVRRSVYSRYDYWGQGTQVTVSS

>  <Result>
high polyreactivity

$$$$
>  <Residues>
QVQLVESGGGLVQAGGSLRLSCAASGFTFVQYAMGWYRQAPGKERELVATISKSGGITYYADSVKGRFTISRDNAKNTVFLQMNSLKPEVTAVYYCAAAWYYSSRGFHATWGHDYWGQGTQVTVSS

>  <Result>
low polyreactivity

$$$$
>  <Residues>
QVQLVESGGGVVQAGGSLRLSCAASGSTFTTNAMGWYRQAPGKDREFVAAIRRTSGRTYYADSVKGRFTISRDNAKNTVYLQMNSLKPEDTAVFYCATDSYSPYGLKSRYDYWGQGTQVTVSS

>  <Result>
high polyreactivity

$$$$
>  <Residues>
QVQLVESCGGLVQAGGSLRLSCAASGRTIASYAMGWYRQAPGKERELVAAITSGGSTYYADSVKGRFTISRDNAMNTVYLQMNSLKPEDTAVYYCARKHAIWRGYDYWGQGTQVTVSS

>  <Result>
low polyreactivity

$$$$

Quick note, polyreactivity (PSR sort gate) for QVQLVESGGGLVQAGGSLRLSCAASGSTIVRYAMGWYRQAPGKERELVASISSGGTTNYADSVNGRFTISRDNAKNTVYLQMNSLKPEDTAVYFCNGTWAYRGHGYWGQGTQVTVSS landed at low polyreactivity

Quick note, polyreactivity (PSR sort gate) for QVQLVESGGGLVQAGGSLSLSCAASGSIFPYYAMGWYRQAPGKESELVAAISRGGGTTYYADSVKGRFTISRDNAKNSVYLQMNSLKPEDTAVYSGAARRWGEYDYWGQGTQVTVSS landed at high polyreactivity

----------
Protocol Details: yeast display, Sf9 membrane polyspecificity reagent, FACS + sequencing; frameworks hold sequencing errors
Measurement Type: polyreactivity (PSR sort gate)

>  <Residues>
QVQLVESGGGLVQAGGSLRLSCAASGFTFYRNAMGWYRQAPGKERELVASISRSGGSTYYADSVKGRFTNSRDNAKNTVYLQMNSLKPEDTAVYYCAADLWWIYPHKYYYWGQGTQVTVSS

>  <Result>
high polyreactivity

$$$$
>  <Residues>
QVQLVESGGGLVQAGGTLRLSCAASGSTFIGNAMGWYIQAPGKERELVAAITRSGGSTFYADSVKGRFTISRDNAKNTVYLQMNSLKPEDTAVYYCAARNGAYPALKEGDYWGQGTQVTVSS

>  <Result>
high polyreactivity

$$$$
>  <Residues>
QVQLVETGGGLVQAGGSLRLSCAASGRIFRTNAMGWYRQAPGKEREFVAAISKDGGRTYYADSVKGRFTISRDNAKNTVYLQMNSLKPEDTAVYYCNARHRYYRYGYWGQGTQVTVSS

>  <Result>
high polyreactivity

$$$$
>  <Residues>
QVQLVESGGGLVQAGGSLRLSCAASGRIFGVNAMGWYRQAPGKERELVAGISISGGSTHYADSVKGRFTISRDNAKNTVYLQMNSLKPEDTAVYYCAKRFYKYVSYWHDYWGQGTQVTVSS

>  <Result>
low polyreactivity

$$$$

Quick note, polyreactivity (PSR sort gate) for QVQLVDSGGGLVQAGGSLRLSCPASGGIFGEYAMGWYRPAPGKEMELVAAINWSGGSTYYADSVKGRFTISRDNAKNTVYLQMNSLKPEDTAVYYCAADRGYPGNVDYWGQGSQVTVSS landed at low polyreactivity

----------
Protocol Details: yeast display, Sf9 membrane polyspecificity reagent, FACS + sequencing; frameworks hold sequencing errors
Measurement Type: polyreactivity (PSR sort gate)

Worked cases, answers included:
>  <Residues>
QVQLVESGGGLVQAGGSLRLSCAASGSTFYYNAMGWYRQAPGKERELVARISRAGASTYYAVAVKGRFTISRDNAKNTVYLPMNSLTPEDTAGYYCAARKKKYGYDNWGQATQVTVSS

>  <polyreactivity (PSR sort gate)>
high polyreactivity

$$$$
>  <Residues>
QVQLVESGGGLVQAGGSLRLSCAASGSTFYPYAMGWYRQATGKERELVAAISSGGSTSYADSVKGRFTISRDNAKNTVYLQMNSLKPEDTAVYFCNASSPGAVPVYDYDYWGQGTQVTVSS

>  <polyreactivity (PSR sort gate)>
low polyreactivity

$$$$
>  <Residues>
QVQLVESGGGLVQAGVSLRLSCAASGRIFFPNGMGCYRQAPGKESELVATISRIGGSTYYADSVKGRFTISRDNAKNTVYLQMNSLKPEDTAVYYFAAQYSYGVYWTLPYGYNYWGQGTQVTVSS

>  <polyreactivity (PSR sort gate)>
low polyreactivity

$$$$
>  <Residues>
QVQLVESGGGLVQAGGSLRLSCAASGFIFYGNAMGWYRQAPGKVRELVAGISRSGGSTYYADSVKGRFTISRDNAKNTVSLQMNSLKPEDSAVYYCAASYWHRRYDYWGQGTQVTVSS

>  <polyreactivity (PSR sort gate)>
high polyreactivity

$$$$

Here is the next item to consider.
Quick note, polyreactivity (PSR sort gate) for QVQLVESGGGLVQAGGSLRLSCAASGRTFYGYDMGWYRQAPGKERELVATISSGGSTNYADSVKGRFTISRDNAKNTVYLQMHSLKPEDTAVYYCIARRFSGYRKGLRPYGSGMNYWGQGTQVTVSS landed at low polyreactivity

----------
Protocol Details: yeast display, Sf9 membrane polyspecificity reagent, FACS + sequencing; frameworks hold sequencing errors
Measurement Type: polyreactivity (PSR sort gate)

Worked cases, answers included:
>  <Residues>
LVLLVESGGGLVQAGGSLRLSCAASGSSLDWYAMGWYRQAPGNVRELVASLSYSGGTTYYADSVTVRFTISRDNAKNTVYLQMISLKPDDTAVDYCATDLLNNVDYDYWGQGTQVTVSS

>  <Result>
low polyreactivity

$$$$
>  <Residues>
QVQLVESGGGLVQAGGSLRLSCAASGRTFGRYAMGWYRQAPGKERELVAAISWRGSSTSYADSVKGRFTISRDNAKNTVYLQMNSLKPEDTSVYYCNAKRSGGYGGYDYWGQGTQVTVSS

>  <Result>
high polyreactivity

$$$$
>  <Residues>
QVQLVESGGGLVQAGGSHRLSCAASGFTFIGYPMGWYRQAPGKERELVAAITQSGGSTFYADSVKGRFTISRDNAKNTVYLHMNSLKPEDTAVYYCNAYRKFRYWGHGTQVTVSS

>  <Result>
low polyreactivity

$$$$
>  <Residues>
QVQLQESGAGPVLAGGSLRLSCAASGTIYVRLDMGWYRQAPGKEREFVATIGSGSSTYYADSVKGSFTISRDNVKNTVYLQMNSLNPEVTAVYYCAVSAAEQSRHYYWAQGTQVTVSS

>  <Result>
low polyreactivity

$$$$
>  <Residues>
QVQLVETGGGLVPAGGSLRLSCAASGSTFQRYAMGWYRQAPGKERELVAAITWSGGSTKYADSVKGRFTISRDNAKNTVYLQMNSMKPEDTAVYYCARTYGSSRWGQGTQVTVSS

>  <Result>
low polyreactivity

$$$$

Here is the next item to consider.
Quick note, polyreactivity (PSR sort gate) for QVQLVESGGGLVKAGGSLRLSCAASGSIFGSYAMGWYRQAPGKERSTYYADSVKGRFTISRDNAKNTVYLQMNSLKPEDTAVYYRAADTYGYQGSAGGHWGLGTQVTVSS landed at low polyreactivity
